target: recombinant RBD protein of wild-type SARS-CoV-2 (ELISA antigen) (SARS-CoV-2 wild-type, UniProt P0DTC2)

| BINDER | binding result |
| --- | --- |
| P195-2A1 (antibody, V domains shown) VH: EVQLVESGGGLVQPGGSLRLSCAASGFTVSSNYMSWVRQAPGKGLEWVSVIYSGGSTYYADSVKGRFTISRDNSKNTLYLQMNSLRAEDTAVYYCARGEGGDLPFDYWGQGTLVTVSS VL: QSALTQPASVSGSPGQSITISCTGTSSDVGGYYYVSWFQQHPGEAPKLMIFDVSKRPSGVSNRFSGSKSGNTASLTISGLQAEDEADYYCSSYTSSSTSHVLFGGGTKLTVL | binds |
| P2-2H8 (antibody, V domains shown) VH: QVQLVQSGAEVKKPGSSVKVSCKASGGTFSSYAISWVRQAPGQGLEWMGRIISMLGIANYAQKFQGRVTITADKSTSTAYMELSSLRSEDTAIYFCARDPDIHYDSSGYSHYYGMDVWGQGTTVTVSS VL: DIVMTQSPLSLPVTPGEPASISCRSSQSLLHGNGYNYLDWYLQRPGQSPQLLIYLGSNRASGVPGRFSGSGSGTDFTLKISRVEAEDVGVYYCMQALQTLITFGQGTQLEIK | binds |

Every entry's value here was drawn from paper PMC10063446.
